Task for the reader: assign each of the following compounds its reported Kd.
target: Tlp4 (Campylobacter jejuni, UniProt Q0PBP3); assay: biochemical; assay type: binding; conditions: SPR KD, mean ± SD; NB = no binding; read-out: Tlp4 Affinity
Sequence (Q0PBP3 entry or part of it): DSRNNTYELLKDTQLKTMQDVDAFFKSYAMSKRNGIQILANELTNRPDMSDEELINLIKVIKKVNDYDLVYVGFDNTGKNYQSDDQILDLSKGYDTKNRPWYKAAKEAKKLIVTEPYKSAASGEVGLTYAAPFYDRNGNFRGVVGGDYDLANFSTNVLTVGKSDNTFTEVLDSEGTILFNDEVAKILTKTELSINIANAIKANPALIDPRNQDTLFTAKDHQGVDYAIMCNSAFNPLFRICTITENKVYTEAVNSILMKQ
Please give a number only; it is taken to be in µM.

Check Tlp4 (Campylobacter jejuni, UniProt Q0PBP3) data and give Kd for CC(=O)N[C@H]1[C@H]([C@H](O)[C@H](O)CO)OC(O)(C(=O)O)C[C@@H]1O (some centres unmarked) .
0.8

Give Kd only, for N[C@@H](CO)C(=O)O , using Tlp4 (Campylobacter jejuni, UniProt Q0PBP3) data.
14.3

Fill in Kd for NC(=O)C[C@H](N)C(=O)O tested with Tlp4 (Campylobacter jejuni, UniProt Q0PBP3).
45.1

Values compiled from paper PMC9769880.
